Source: PubChem BioAssay (NCI)

Tested on: BT-549 breast
Test: NCI-60 one-dose screen, 48 h (100 = growth as untreated, 0 = no growth, -100 = all killed)
Details: 10 µM unless noted
Compounds without any hit were thinned out: in the full panel of roughly 83,000, 20% have a hit.
For each record, write down the corresponding growth.
Numbers only, in %.

Dear colleague, could you please provide growth for the molecules listed below?
1. COc1cc2c(-c3cc4c(cc3CNCCc3ccc5c(c3)OCO5)OCO4)cccc2c(OC)c1O
2. COc1ccc(C/C(C)=C(/c2ccc(OCCCN(C)C)cc2)c2ccc(OC(C)=O)cc2)cc1
3. CC(=O)[C@H]1CCC/C=C/[C@@H]2C[C@H](O)C[C@H]2[C@H](O)/C=C/C(=O)O1
4. O=C(NCCc1ccccc1)Nc1ccc2cc3ccc(NC(=O)NCCc4ccccc4)cc3nc2c1
5. N#Cc1c(-c2cccc([N+](=O)[O-])c2)nc(SCC(=O)c2ccc(Cl)cc2)[nH]c1=O

Result string:
1: 91.3; 2: 89; 3: 9.71; 4: 70.6; 5: 99.7

====

System: 786-0 renal
Test: NCI-60 one-dose screen, 48 h (100 = growth as untreated, 0 = no growth, -100 = all killed)
Details: 10 µM unless noted
About 83,000 compounds went through this panel and 20% of them were active in at least one assay; those are over-represented in the sample as a whole.
Quick rule for you: growth under 30% gets class 1, anything else gets class 0.

Answered examples (3):
compound=CCC(CC)NCC(C)(C)O answer_label="class 0"
compound=Cc1nc2ccc(Cl)cn2c1-c1nnc(SCc2ccc([N+](=O)[O-])cc2)o1 answer_label="class 0"
compound=COc1cc(-c2n/c(=C\c3c(O)[nH]c4ccc(Cl)cc34)cc3c2=Nc2ccccc2-3)ccc1F answer_label="class 1"

Query string: # strict comparison: is reported growth < 30%? input = CC1(C)CC(=O)C2=C(C1)N(c1ccc(F)cc1F)C(N)=C(C#N)C2c1cc(Br)ccc1F (stereo not drawn)
Result string: class 0

Query string: A record lists COc1ccc2c(c1)oc1c(C)c3c(c(C)c12)C(=O)N(CCN1CCOCC1)C3=O . Is its growth below 30%?
Result string: class 0

Query string: Hello, is growth of the following compound strictly smaller than 30%? COc1cc(C2=C(c3cn(C)c4ccccc34)COC2=O)cc(OC)c1OC
Result string: class 1

Query string: Identify whether the compound O=S(=O)(NCCCNc1nccc(-c2c(-c3cccc(F)c3)nc3sccn23)n1)c1cccc2ccccc12 records growth below 30%.
Result string: class 0

Query string: Could you please tell me whether growth recorded for O=C1Nc2cc(-c3cccc(O)c3)ccc2/C1=C/c1ccc[nH]1 is less than 30%?
Result string: class 1

Query string: Just wondering, is growth of CNC(=O)c1cncc(Cn2nc(C)c(NC(=O)c3ccc(COc4ccc(C(F)(F)F)cc4C)cc3)c2C)c1 below 30%?
Result string: class 0

Query string: Is growth of CCNc1nc2ccc(Nc3ccnc4cc(Cl)ccc34)cc2[nH]1 strictly below 30%?
Result string: class 0

Query string: Input CC(=O)CCC(=O)OCc1cc(=O)c(O)co1 ; condition: growth strictly below 30%. Does it hold?
Result string: class 0

Query string: Determine if C=C1C(=O)O[C@H]2[C@H]1CC/C(CNC(=O)CCc1ccc(OC)cc1)=C\CC[C@@]1(C)O[C@@H]21 shows growth strictly lower than 30%.
Result string: class 0

====

Test system: BT-549 breast
Test: NCI-60 one-dose screen, 48 h
Details: 10 µM unless noted
About 83,000 compounds went through this panel and 20% of them were active in at least one assay; those are over-represented in the sample as a whole. Active and inactive are the calls of the source. How the source made its calls: active means growth percent below 10; inactive means the rest.
The reply should name one outcome from yes (1) = active, no (0) = inactive

For orientation, consider the following solved cases.
compound=CCC(CC)NCC(C)(C)O measured_on="BT-549 breast" answer_label="no (0)"
compound=O=C1/C=C/[C@@H](O)[C@@H]2C[C@@H](O)C[C@H]2/C=C/CCC[C@H](CCc2ccc3ncccc3c2)O1 measured_on="BT-549 breast" answer_label="yes (1)"
compound=COc1cc2c(c(O)c1Br)C(=O)c1c(O)cc(C[C@H](C)O)cc1[C@H]2[C@H]1c2cc(C[C@H](C)O)cc(O)c2C(=O)c2c1cc(OC)c(Br)c2O measured_on="BT-549 breast" answer_label="no (0)"
compound="O=C(C1CCC1)N1N=C(c2ccc(-n3ccc(C(F)(F)F)n3)cc2)CC1c1ccc[nH]1 (stereo unspecified)" measured_on="BT-549 breast" answer_label="no (0)"
compound="O=C(c1nc2ccccc2[nH]1)C1C(c2ccc(Br)cc2)C2CC3CCCC[C@H]3N2[C@@]12C(=O)Nc1cc(Cl)ccc12 (stereo partly specified)" measured_on="BT-549 breast" answer_label="no (0)"

Query string: In this assay, the call recorded for Cn1c(-c2c(N)n(CCCN3CCOCC3)c3nc(C#N)c(C#N)nc23)nc2ccccc21 was what?
Result string: no (0)

====

Tested on: OVCAR-4 ovarian
Test: NCI-60 one-dose screen, 48 h (100 = growth as untreated, 0 = no growth, -100 = all killed)
Conditions: 10 µM unless noted
Description: Growth inhibition of the OVCAR-4 human tumor cell line is measured as a screen for anti-cancer activity. Cells are grown in 96 well plates and exposed to the test compound for 48 hours. Compounds are tested at a single concentration, which is 10^-5 M for most compounds. The reported endpoint is percent growth (GI% or GIPRCNT), where numbers from 0 - 100% represent growth inhibition, and numbers from -100% - 0 represent cell death. For example, a value of 40 represents 60% growth inhibition. […]
This is part of a sample that, as a whole, favours compounds with a hit. Of some 83,000 tested, about 20% had one in any assay.
Measured Attribute: growth (%)
One number for each entry, in %.

Use these answered entries as a reference point.
structure_smiles=Nc1c(S(=O)(=O)O)cc2c3c(cccc13)C(=O)OC2=O measured_attribute=growth recorded_value=94
structure_smiles=O=C(/C=C(/C=C/c1csc2ccccc12)OB(F)F)/C=C/c1csc2ccccc12 measured_attribute=growth recorded_value=-0.888
structure_smiles=COc1cc(-c2n/c(=C\c3c(O)[nH]c4ccc(Cl)cc34)cc3c2=Nc2ccccc2-3)ccc1F measured_attribute=growth recorded_value=-56.9

I would be grateful if you could provide growth for each of the following entries.
1. CCOc1ccc(/C=N/Nc2cc(C)nc3ccc(Br)cc23)cc1
2. CCCCCN1C=C/C(=C\C(=O)N(C)c2ccccc2Br)c2ccccc21

Result string:
[91.8, 83.5]

====

Tested on: 786-0 renal
Assay: NCI-60 one-dose screen, 48 h
Settings: 10 µM unless noted
Compounds without any hit were thinned out: in the full panel of roughly 83,000, 20% have a hit. Activity calls are given as the source filed them. Rule for the calls: active = growth percent below 10; inactive = the rest.
Hi there, use one of these labels in your reply, thanks! 1 (active), 0 (inactive)

Record excerpt, results attached:
molecule="CCCCCCCC(=O)OCC/C=C/C1OC1C1OC(=O)/C=C\\C=C\\C(=O)N(C(C)=O)C(=O)/C=C(/C)CCC2OC2C1OC(=O)NC(C)=O (stereo not drawn)" answer_label=0
molecule="COc1cc(C=O)ccc1OC1OC(COC(C)=O)C(OC(C)=O)C(OC(C)=O)C1OC(C)=O (stereo not drawn)" answer_label=0
molecule=O=c1c2c(c(=O)n1O)c1c3ccc[nH]c3nc1c1nc3[nH]cccc3c12 answer_label=0

Query string: Recorded call for CCCCCN1C=C/C(=C\C(=O)n2ccc3ccccc32)c2ccccc21 ?
Result string: 0

Query string: I'd appreciate the recorded outcome for COCCCN1CC(O)=C(c2nc(-c3ccc(C)cc3)cs2)C1=N from this test.
Result string: 0

Query string: For this molecule, state the assay outcome: O=C(Nc1cccc(C2=NCCN2)c1)c1ccc(-c2ccc(C(=O)Nc3cccc(C4=NCCN4)c3)cc2)cc1
Result string: 0

Query string: Could you kindly confirm the outcome this assay logged for COc1cc2nc(-c3ccc(Cl)cc3)cc(OCCCN3CCOCC3)c2cc1OC ?
Result string: 0

Query string: Record lookup: outcome of this test for C=C1C(=O)O[C@H]2[C@H]1CC/C(CNC(=O)/C=C/c1cccc(OC)c1)=C\CC[C@@]1(C)O[C@@H]21 ?
Result string: 1

Query string: Call for entry CCOC(=O)Nc1ccc(-c2ccc3c(c2)NC(=O)/C3=C\c2ccc[nH]2)cc1 :
Result string: 0

Query string: Please share the test call associated with COc1ccc(/C=C/c2nc(Nc3cccc(NC(C)=O)c3)c3ccccc3n2)cc1 .
Result string: 0

Query string: Any idea what this test logged for COc1cc2c(c(OC)c1OC)CCC(c1cccc(NC(=O)c3cccc(Br)c3)c1)O2 (stereo not drawn) ?
Result string: 0

Query string: Name the outcome recorded for COc1cc2nc(-c3ccc(Cl)cc3)cc(OCCCN3CCCC3)c2cc1OC in the assay.
Result string: 0

Query string: Assay outcome for CC1(C)c2[nH]c3ccccc3c2C[C@]2(C)[C@H]3C(=O)C=C4[C@@H]5C[C@@](C)(C(N)=O)CC[C@]5(C)CC[C@@]4(C)[C@]3(C)CC[C@@H]12 : what was it?
Result string: 0

Query string: What outcome does the record of this test show for COc1ccc(C(=O)c2cc(C)c(OC)c(C)c2)c(OC)c1N(C(=O)CCl)C(=O)CCl ?
Result string: 0

Query string: Can you look up the reported call for CCN(CC)c1ccc(/C=N/NC(=O)CSc2nc3ccccc3c(=O)n2CCc2ccc(S(N)(=O)=O)cc2)c(O)c1 for me?
Result string: 0

Query string: Tell me the assay call for COC(=O)/C=C1\S/C(=N\NC(=O)c2cc3ccc2/C=C\c2ccc(cc2)/C=C\3)N(Cc2ccccc2)C1=O please.
Result string: 0

Query string: Dear colleague, could you share the recorded outcome for C[C@@H](Nc1ncnc2ccc(-c3cnc(N)nc3)cc12)c1ccc(F)cc1 when you have a moment?
Result string: 0

Query string: Just curious, what result did COc1ccc(C/C(=C(\C)c2ccc(OCCN3CCCC3)cc2)c2ccc(OCCN3CCCC3)cc2)cc1 get here?
Result string: 0

Query string: Record lookup: outcome of this test for CC1(C)CC[C@]2(C(=O)O)CC[C@]3(C)C(=CC[C@@H]4[C@@]5(C)Cc6c([nH]c7ccccc67)C(C)(C)[C@@H]5CC[C@]43C)[C@@H]2C1 ?
Result string: 0

Query string: I'd appreciate the recorded outcome for O=C(CCN1CCCC1)Nc1ccc2c(Nc3ccc(Br)cc3)c3ccccc3nc2c1 from this test.
Result string: 0

Query string: Test call for this molecule, please: O=C(c1nc2ccccc2[nH]1)C1C(c2ccc(Cl)cc2)C2CC3CCCC[C@H]3N2[C@@]12C(=O)Nc1cc(Cl)ccc12 (stereo partly drawn)
Result string: 0

Query string: Which outcome was entered for the molecule CCN(CC)c1ccc(/C=N/NC(=O)CSc2nc3ccccc3c(=O)n2Cc2ccc(S(N)(=O)=O)cc2)c(O)c1 in this test?
Result string: 0
